measured.target: mPAD4 (Mus musculus, UniProt Q9Z183)
Sequence (Q9Z183 whole entry): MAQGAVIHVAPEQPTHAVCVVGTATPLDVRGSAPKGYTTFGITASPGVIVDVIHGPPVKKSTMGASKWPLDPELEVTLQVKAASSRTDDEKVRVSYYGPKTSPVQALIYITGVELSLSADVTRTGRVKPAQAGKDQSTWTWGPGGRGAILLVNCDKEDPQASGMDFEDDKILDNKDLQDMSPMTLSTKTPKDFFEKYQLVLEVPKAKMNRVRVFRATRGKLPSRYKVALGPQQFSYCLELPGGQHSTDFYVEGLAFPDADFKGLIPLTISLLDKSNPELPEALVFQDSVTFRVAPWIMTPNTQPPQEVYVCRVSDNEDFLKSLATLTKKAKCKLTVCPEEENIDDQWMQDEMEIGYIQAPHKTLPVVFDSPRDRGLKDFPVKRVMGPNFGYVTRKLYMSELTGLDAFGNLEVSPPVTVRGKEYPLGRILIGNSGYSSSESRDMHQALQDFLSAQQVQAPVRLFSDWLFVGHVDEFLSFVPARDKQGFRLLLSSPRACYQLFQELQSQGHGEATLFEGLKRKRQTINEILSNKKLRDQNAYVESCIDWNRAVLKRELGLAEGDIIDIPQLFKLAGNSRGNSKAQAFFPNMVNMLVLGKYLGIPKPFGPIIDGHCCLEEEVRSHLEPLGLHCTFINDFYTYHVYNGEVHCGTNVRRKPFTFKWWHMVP
test.protocol: mPAD4 RFMS PAD4 inhibition assay;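 on mPAD4 RFMS pIC50: grade E means pIC50 at most 4 and F means pIC50 4.0 to 5.0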
Format: biochemical
experimental.setup: mPAD4, RFMS readout; pIC50=−log(IC50); read-out: mPAD4 RFMS pIC50 (converted)
measure.name: IC50

[[record]]
compound = "COc1cc(C(=O)N2C[C@@H]3[C@@H](N)[C@@H]3C2)cc2nc(-c3cc4cccnc4n3CC3CC3)n(C)c12"
measure_name = "IC50"
result = "10 to 100 µM"

[[record]]
compound = "CCn1c(-c2nc3cc(C(=O)N4C[C@@H](N)CC[C@H]4C)cc(OC)c3n2C)cc2cccnc21"
measure_name = "IC50"
result = "< 1 µM"

[[record]]
compound = "Cn1c(-c2cc3cccnc3n2CC2CC2)nc2cc(C(=O)N3CCC[C@@H](N)C3)cc(F)c21"
measure_name = "IC50"
result = "1 to 10 µM"

[[record]]
compound = "COc1cc(C(=O)N2CCC3OCCNC3C2)cc2nc(-c3cc4cccnc4n3CC3CC3)n(C)c12 (racemic)"
measure_name = "IC50"
result = "1 to 10 µM"

[[record]]
compound = "CCn1c(-c2nc3cc(C(=O)N4C[C@H]5CC[C@@H]4[C@@H]5N)cc(F)c3n2C)cc2cccnc21"
measure_name = "IC50"
result = "1 to 10 µM"

[[record]]
compound = "CCn1c(-c2nc3cc(C(=O)N4C[C@H]5CC[C@@H]4[C@@H]5N)cc(OC)c3n2C)cc2ccc(C(F)(F)F)nc21"
measure_name = "IC50"
result = "< 1 µM"

[[record]]
compound = "COCCn1c(-c2nc3cc(C(=O)N4C[C@@H](N)CC[C@H]4C)cc(OC)c3n2C)cc2cccnc21"
measure_name = "IC50"
result = "1 to 10 µM"


====

measured.target: UniProt:Q9Z183
test.protocol: mPAD4 RFMS PAD4 inhibition assay
Format: biochemical
experimental.setup: mPAD4, RFMS readout; read-out: mPAD4 RFMS IC50
pIC50: −log10 of the molar value. Where a name gives a salt, the structure may show the parent alone.
measure.name: pIC50

[[record]]
molecule = "COc1cc(C(=O)N2C[C@H]3CC[C@@H]2[C@@H]3N)cc2nc(-c3cc4cccnc4n3CC3CC3)n(C[C@H]3C[C@@H](OC)C3)c12 [Compound I-236]"
result = "> 6.00"

[[record]]
molecule = "CCn1c(-c2nc3cc(C(=O)N4CC5CCC4C5N)cc(OC)c3n2C)cc2ccc(OC)nc21 (racemic) [Compound I-136]"
result = "> 6.00"

[[record]]
molecule = "CO[C@]1(C)C[C@H](Cn2c(-c3cc4cccnc4n3CC3CC3)nc3cc(C(=O)N4C[C@H]5CC[C@@H]4[C@@H]5N)cc(F)c32)C1 [Compound I-223]"
result = "> 6.00"

[[record]]
molecule = "Cn1c(-c2cc3cccnc3n2CC2CC2)nc2cc(C(=O)N3CC[C@H]4CCN[C@H]4C3)cc(OC(F)F)c21 (single isomer, unassigned) [Compound I-24, hydrochloride]"
result = "< 5.00"

[[record]]
molecule = "COc1cc(C(=O)N2CCOC3(CNC3)C2)cc2nc(-c3cc4cccnc4n3CC3CC3)n(C)c12 [Compound I-122]"
result = "< 5.00"

[[record]]
molecule = "CCn1c(-c2nc3cc(C(=O)N4C[C@H]5CC[C@@H]4[C@@H]5N)cc(OC)c3n2[C@H]2C[C@H](OC)C2)cc2cccnc21 [Compound I-207]"
result = "5.30 to 6.00"

[[record]]
molecule = "COc1cc(C(=O)N2C[C@@H](N)C[C@H](F)C2)cc2nc(-c3cc4cccnc4n3CC3CC3)n(C)c12 [Compound I-34]"
result = "> 6.00"

[[record]]
molecule = "COc1cc(C(=O)N2CC[C@H](F)[C@H](N)C2)cc2nc(-c3cc4cccnc4n3CC3CC3)n(C)c12 [Compound I-90]"
result = "5.30 to 6.00"

[[record]]
molecule = "COc1cc(C(=O)N2CC[C@H]3OCCN[C@H]3C2)cc2nc(-c3cc4cccnc4n3CC3CC3)n(C)c12 [Compound I-28]"
result = "> 6.00"

[[record]]
molecule = "COc1cc(C(=O)N2CCCC3(CNC3)C2)cc2nc(-c3cc4cccnc4n3CC3CC3)n(C)c12 [Compound I-100]"
result = "< 5.00"

[[record]]
molecule = "COc1cc(C(=O)N2CCC[C@@H](N)C2)cc2nc(-c3cc4ccc(C)nc4n3CC3CC3)n(C)c12 [Compound I-199]"
result = "> 6.00"

[[record]]
molecule = "CCn1c(-c2nc3cc(C(=O)N4CCC[C@@H](N)C4)cc(F)c3n2CC)cc2cccnc21 [Compound I-151]"
result = "5.00 to 5.30"

[[record]]
molecule = "CCn1c(-c2nc3cc(C(=O)N4CCC[C@@H](N)C4)ccc3n2CCOC)cc2cccnc21 [Compound I-185]"
result = "< 5.00"

[[record]]
molecule = "CCn1c(-c2nc3cc(C(=O)N4C[C@H]5CC[C@@H]4[C@@H]5N)cc(OC)c3n2CC2CC(F)(F)C2)cc2cccnc21 [Compound I-179]"
result = "5.30 to 6.00"

[[record]]
molecule = "CCn1c(-c2nc3cc(C(=O)N4CCC[C@@H](N)C4)cc(OC)c3n2CC2CCOCC2)cc2cccnc21 [Compound I-174]"
result = "5.30 to 6.00"

[[record]]
molecule = "CCn1c(-c2nc3cc(C(=O)N4C[C@H]5CC[C@@H]4[C@@H]5N)cc(OC)c3n2C)cc2ccc(C)nc21 [Compound I-160]"
result = "> 6.00"

[[record]]
molecule = "Cn1c(-c2cc3cccnc3n2CC2CC2)nc2cc(C(=O)N3C[C@H]4CC[C@@H]3[C@@H]4N)c(F)cc21 [Compound I-194]"
result = "5.00 to 5.30"

[[record]]
molecule = "COc1cc(C(=O)N2C[C@@H](N)C[C@H](O)C2)cc2nc(-c3cc4cccnc4n3CC3CC3)n(C)c12 (racemic) [Compound I-80]"
result = "5.30 to 6.00"

[[record]]
molecule = "CCn1c(-c2nc3cc(C(=O)N4CCC[C@@H](N)C4)cc(OC)c3n2C)cc2ccc(C(F)(F)F)nc21 [Compound I-184]"
result = "> 6.00"

[[record]]
molecule = "CCn1c(-c2nc3cc(C(=O)N4C[C@H]5CC[C@@H]4[C@@H]5N)cc(OC)c3n2C)cc2cccnc21 (racemic) [Compound I-143]"
result = "> 6.00"

[[record]]
molecule = "COc1cc(C(=O)N2CCC[C@@H](N)C2)cc2nc(-c3cc4cc(C#N)cnc4n3CC3CC3)n(C)c12 [Compound I-132]"
result = "5.30 to 6.00"

[[record]]
molecule = "COCCn1c(-c2nc3cc(C(=O)N4CCC[C@@H](N)C4)cc(OC)c3n2C)cc2cccnc21 [Compound I-137]"
result = "5.30 to 6.00"

[[record]]
molecule = "COCCn1c(-c2cc3cccnc3n2CC2CC2)nc2cc(C(=O)N3C[C@H]4CC[C@@H]3[C@@H]4N)cc(OC)c21 [Compound I-178]"
result = "> 6.00"

[[record]]
molecule = "COc1cc(C(=O)N2CC[C@@H]3OCCN[C@@H]3C2)cc2nc(-c3cc4cccnc4n3CC3CC3)n(C)c12 [Compound I-29]"
result = "5.00 to 5.30"

[[record]]
molecule = "CO[C@@H]1CCN(C(=O)c2cc(OC(F)F)c3c(c2)nc(-c2cc4cccnc4n2CC2CC2)n3C)C[C@@H]1N [Compound I-124]"
result = "5.00 to 5.30"

[[record]]
molecule = "COc1cc(C(=O)N2C[C@H]3CC[C@@H]2[C@@H]3N)cc2nc(-c3cc4cccnc4n3CC3CC3)n(C[C@H]3CCOC3)c12 [Compound I-231]"
result = "> 6.00"

